The molecules listed here are annotated with their viability, T/C.
Test system: 422866-222-R5-J1-PDC complex spheroids viability
Assay: Anticancer human tumor 422866-222-R5-J1-PDC patient-derived pancreatic adenocarcinoma cell line growth inhibition [RAS]
Details: second compound 0.3 µM; first compound 0.1 µM; active compounds read low
Report only the number, with the unit % understood.

Some entries whose results are on file:
>>> val("C=CC(=O)N1CCN(c2nc(OCC3CCCN3C)nc3c(F)c(-c4nc(N)cc(C)c4C(F)(F)F)c(Cl)cc23)C(C)C1 (stereo not drawn) + CCn1c(-c2cc(N3CCN(C)CC3)cnc2C(C)OC)c2c3cc(ccc31)-c1csc(n1)CC(NC(=O)C1CC1C)C(=O)N1CCCC(N1)C(=O)OCC(C)(C)C2")
20.2
>>> val("C=CC(=O)Nc1cc(Nc2nccc(-c3cn(C)c4ccccc34)n2)c(OC)cc1N(C)CCN(C)C + CCn1c(-c2cccnc2C(C)OC)c2c3cc(ccc31)N1CCOC(CC(NC(=O)C(C(C)C)N(C)C(=O)C3(F)CCN(C(=O)C#CC(C)(C)N(C)C)CC3)C(=O)N3CCCC(N3)C(=O)OCC(C)(C)C2)C1")
13.8

Field viability, T/C (system: 422866-222-R5-J1-PDC complex spheroids viability) for entry C=CC(=O)Nc1cc(Nc2nccc(-c3cn(C)c4ccccc34)n2)c(OC)cc1N(C)CCN(C)C + CCn1c(-c2cc(N3CCN(C)CC3)cnc2C(C)OC)c2c3cc(ccc31)-c1csc(n1)CC(NC(=O)C1CC1C)C(=O)N1CCCC(N1)C(=O)OCC(C)(C)C2 = 16.5

* * *

Test system: 422866-222-R5-J1-PDC complex spheroids viability
Test: Anticancer human tumor 422866-222-R5-J1-PDC cell line growth inhibition [RAS];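 also: spheroids exposed to compounds for 7 days; 100% = DMSO vehicle control viability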
Settings: second compound 0.03 µM; first compound 0.1 µM; active compounds read low
Source text: RAS pathway inhibitors in Combinations in Complex Spheroids A high-throughput screen of multi-cell type tumor spheroids was designed to identify active combinations of RAS pathway inhibitors and targeted small molecules. Complex spheroids include a stromal component modeled by human endothelial cells (HUVEC) and fibroblasts modeled by human mesenchymal stem cells (MSCs). […] Compounds. […] If the clinical Cmax for an agent had not been determined, the highest concentration tested was 10 microM. […]
property.measured: viability, T/C (%)
Report only the number, with the unit % understood.

Some entries whose results are on file:
>>> val("CCC(CC)c1cc(NC2CCC(N)C2)n2nccc2n1 (centres undefined) + CCn1c(-c2cc(N3CCN(C)CC3)cnc2C(C)OC)c2c3cc(ccc31)-c1csc(n1)CC(NC(=O)C1CC1C)C(=O)N1CCCC(N1)C(=O)OCC(C)(C)C2")
20.4
>>> val("CC1(O)CCCC1n1c(=O)c(C(F)F)cc2cnc(NC3CCN(S(C)(=O)=O)CC3)nc21 (centres undefined) + CCn1c(-c2cccnc2C(C)OC)c2c3cc(ccc31)N1CCOC(CC(NC(=O)C(C(C)C)N(C)C(=O)C3(F)CCN(C(=O)C#CC(C)(C)N(C)C)CC3)C(=O)N3CCCC(N3)C(=O)OCC(C)(C)C2)C1")
20.5
>>> val("C=CC(=O)N1CCN(c2nc(OCC3CCCN3C)nc3c(F)c(-c4nc(N)cc(C)c4C(F)(F)F)c(Cl)cc23)C(C)C1 (centres undefined) + CCn1c(-c2cccnc2C(C)OC)c2c3cc(ccc31)N1CCOC(CC(NC(=O)C(C(C)C)N(C)C(=O)C3(F)CCN(C(=O)C#CC(C)(C)N(C)C)CC3)C(=O)N3CCCC(N3)C(=O)OCC(C)(C)C2)C1")
18.9

Next molecule, please.
Memo: Cc1nc(N2CCC3(CC2)COC(C)C3N)c(CO)nc1Sc1ccnc(N)c1Cl (centres undefined) + CCn1c(-c2cccnc2C(C)OC)c2c3cc(ccc31)N1CCOC(CC(NC(=O)C(C(C)C)N(C)C(=O)C3(F)CCN(C(=O)C#CC(C)(C)N(C)C)CC3)C(=O)N3CCCC(N3)C(=O)OCC(C)(C)C2)C1 , reported viability, T/C: 15.6
